Test system: phospho-ERK in melanoma derived WM-266-4 cells
EXPERIMENT SUMMARY: Mechanistic cellular assay for Raf kinase activity (phospho-ERK, Bio-Plex)
Assay type: cell-based
RUN CONDITIONS: Homo sapiens, treated 1-2 hr at 37° C., serum free medium, read-out: pERK EC50
pEC50: −log10 of the molar value.
OBSERVABLE: pEC50

# example entries with known answers
[
  {
    "COMPOUND": "CC(NC(=O)c1cc2c(cn1)ncn2C)c1cnc(Nc2cc(C(N)=O)cc(C(C)(C)C)c2)s1 (stereo not shown)",
    "RECORDED VALUE": "5.00 to 6.00"
  },
  {
    "COMPOUND": "Cc1ccc(NC(=O)c2cc([C@@H](C)NC(=O)c3cnn4cccnc34)no2)cc1C(F)(F)F",
    "RECORDED VALUE": "6.00 to 7.00"
  },
  {
    "COMPOUND": "CC(=O)N1CCn2c(C(=O)N[C@H](C)c3ncc(C(=O)Nc4cc(C(F)(F)F)c(Cl)cn4)s3)cnc2C1",
    "RECORDED VALUE": "5.00 to 6.00"
  }
]

Problem: Provide only the value of recorded pEC50 for CCc1nc2cnc(C(=O)NC(C)c3ncc(Nc4ccc(C(F)(F)F)cc4)s3)cn2c1NC(C)(C)CC(C)(C)C (stereo not shown)
Solution: 5.00 to 6.00

Values were extracted from patent US20120040951A1.
